Listed here are binders together with their documented kon.
SYSTEM UNDER TEST: T1, rhesus monkey TfR ectodomain fused to a mouse IgG1 Fc fragment (rhesus monkey, UniProt I0FKY7 89-760)
T1 construct: extracellular domain; not shown: mouse IgG1 Fc fragment
ASSAY SUMMARY: SPR, kinetic
MEASURED METRIC: kon (M⁻¹ s⁻¹)

# BINDER, REPORTED
records = [
    ("B8^V31 (VHH) VHH: EVQLVESGGGVVQPGGSLRLSCAASGEIKSINFMRWYRQAPGKQREWVAGFTRDGSTNYPDSAKGRFTISRDNAKNTVYLQIDSLKPEDTAVYYCYMLDTWGQGTQVTVSS", "1.59e+06"),
    ("B8^V12 (VHH) VHH: EVQLVESGGGVVQPGGSLRLSCAASGEIFYINFMRWYRQAPGKQREWVAGFTRDGSTNYPDSAKGRFTISRDNAKNTVYLQIDSLKPEDTAVYYCYMLDTWGQGTQVTVSS", 997000),
    ("B8^V37 (VHH) VHH: EVQLVESGGGVVQPGGSLRLSCAASGEIFSINFMRWYRQAPGKQREWVAGFTRDGSTNYPDSAKGRFTISEDNAKNTVYLQIDSLKPEDTAVYYCYMLRTWGQGTQVTVSS", 700000),
    ("H1 (VHH, also called phage-H1 (as tracer)) VHH: EVQLVESGGGLVQPGGSLRLSCAASGFASHLYAIGWFRQAPGKEREKVSCISSNDGSTYYADSVKGRFTISRDTVKDMVYLQMNSLKPEDTAVYYCATDLTVHCFMAEYDWWGQGTQVTVSS", 662000),
]

Provenance of the data: patent US20230414780A1
